Quick reference for growth among some compounds
- Test system: U251 CNS
- assay_explanation: NCI-60 one-dose screen, 48 h (100 = growth as untreated, 0 = no growth, -100 = all killed)
- protocol_conditions: 10 µM unless noted
The panel holds about 83,000 compounds, 20% with a hit somewhere; the sample as a whole holds those more often.
Value expressed in %; do not type the unit.

Cc1ccc(-c2csc(NC(=O)CN3CCN(c4cc5c(cc4F)c(=O)c(C(=O)O)cn5C4CC4)CC3)n2)cc1 : 7.62
N#Cc1c(NC(=O)c2ccccc2)sc2c1CCC(=O)C2 : 13.4

Task item: What value of growth has been recorded for this entry: COc1ccc(C2=Nc3c/c(=C\c4c(O)[nH]c5ccc(Cl)cc45)ccc3=N2)cc1
Reply: 42

Task item: What value of growth has been recorded for this entry: C#CCOc1cccc(Nc2ncnc3c(NC(=O)C=C)cccc23)c1
Reply: 24.7

Task item: What value of growth has been recorded for this entry: CCOC(=O)c1c(C)nc2c(c1N)CC(=O)N2Cc1cc(F)cc(Cl)c1
Reply: 90.8

Task item: What value of growth has been recorded for this entry: CCOC(=O)c1cnc2ccccc2c1Cl
Reply: 102

Task item: What value of growth has been recorded for this entry: CN(Cc1ccc(C(F)(F)F)cc1)CC(O)C(=O)Nc1ccc(Cl)cc1 (stereo not given)
Reply: -82.3

Task item: What value of growth has been recorded for this entry: COc1ccc2c(c1)c(-c1noc(C(=O)c3cn(C)c4ccc(Br)cc34)n1)cn2C
Reply: 101

Task item: What value of growth has been recorded for this entry: Cn1ccnc1C(=O)C(=O)Nc1ccc(CC(=O)Nc2ccccc2)cc1
Reply: 108

Task item: What value of growth has been recorded for this entry: CCCCCCCCCCCCCCCCCCOc1ccccc1CC(=O)OCC[N+]1(C)CCCC1
Reply: 7.62

Task item: What value of growth has been recorded for this entry: Cc1ccc(-c2nc3nc(-c4ccc(F)cc4)nc(N4CCNCC4)c3o2)cc1
Reply: -30.9

Task item: What value of growth has been recorded for this entry: C=CCn1c(SCC(=O)Nc2ccc(C(=O)/C=C/c3ccc(Cl)cc3)cc2)nnc1-c1cc(-c2ccc(S(N)(=O)=O)cc2)nc2ccccc12
Reply: 71.2

----------
- Tested on: CAKI-1 renal
- assay_explanation: NCI-60 one-dose screen, 48 h (100 = growth as untreated, 0 = no growth, -100 = all killed)
- protocol_conditions: 10 µM unless noted
Compounds without any hit were thinned out: in the full panel of roughly 83,000, 20% have a hit.
Quick reference for growth among some compounds
Value expressed in %; do not type the unit.

O=C1c2cccc3cccc(c23)C(=O)N1N1C(=O)c2cccc3c(N4CCOCC4)ccc(c23)C1=O : 87.4
CCCc1cc(NC)nc(S(=O)(=O)CC)n1 : 98.1
CNC(=O)c1cc(Oc2ccc3nc(NC(C)=O)sc3c2)ccn1 : 89.2
CCN1CC(=O)N(/N=C2\C(=O)Nc3ccccc32)C1=S : 59
Fc1ccc2[nH]cc(-c3nonc3-c3c[nH]c4ccc(Br)cc34)c2c1 : 12.4
CCOC(=O)c1c(C)nc2c(c1N)CC(=O)N2Cc1cc(F)cc(Cl)c1 : 75.8
C#Cc1ccc(NC(=O)c2ccc(/C=C/C(=O)c3nccn3C)cc2)cc1 : -81.6

Task item: What value of growth has been recorded for this entry: C=C(C)[C@@H]1CC[C@]2(C(=O)O)CC[C@]3(C)[C@H](CC[C@@H]4[C@@]5(C)C[C@@H](Cc6cn(CCO[C@@H]7O[C@H](COC(C)=O)[C@H](OC(C)=O)[C@H](OC(C)=O)[C@H]7OC(C)=O)nn6)[C@H](O)C(C)(C)[C@@H]5CC[C@]43C)[C@@H]12
Reply: 73.2
